# method: RAM signaling pathway blockade in yeast – S. cerevisiae, Pdr1DBD-CYC8 efflux-inhibited sensitized strain, primary screen (AID 1298);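 further: 0% = DMSO untreated cells without growth and 100% = 10 µM 1-NA-PP1 full growth; higher means more yeast growth rescued from 5-FOA killing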
# reported conditions: S. cerevisiae cbk1-as DSE1-URA3 strain, 5-FOA growth OD615, 2 d; at 50 µM; hits give high values
measured endpoint: RAM network inhibition (%)
State the answer as a number, implicitly in %.

Cc1nn(Cc2ccc(Cl)c(Cl)c2)c(C)c1NC(=O)c1cc(C2CC2)on1 : 2.79
CCNC(=O)c1c(N)sc2c1CCCCC2 : 4.23
CSc1nc(SCC(=O)NCc2ccco2)c2c3c(sc2n1)COC(C)(C)C3 : 7.62
Cc1cccc(N2CCN(c3nc4ccccc4n4cnnc34)CC2)c1C : -0.66

The reported RAM network inhibition of the compound COC(=O)CN1C(=O)CC(C)(C)Sc2ccccc21 was 2.53

The reported RAM network inhibition of the compound COc1ccccc1-c1nc(NC(C)=O)n[nH]1 was 5.35

The reported RAM network inhibition of the compound CC(=O)NCCc1nc2ccccc2n1Cc1ccccc1 was 3.58

The reported RAM network inhibition of the compound O=c1c2ccccc2[nH]c(=S)n1Cc1cccnc1 was 1.73

The reported RAM network inhibition of the compound Cc1ccc2c(c1)-c1c(cnn1CC(=O)N1CCCN(Cc3ccccc3F)C1)CO2 was 1.9

The reported RAM network inhibition of the compound COc1cc(NS(=O)(=O)c2ccc(NC(=O)COc3ccc(C)cc3)cc2)nc(OC)n1 was 3.5

The reported RAM network inhibition of the compound Cc1cc(/C=N/n2cnnc2)c(C)n1-c1ccc(OCc2ccc(F)cc2)cc1 was 8.48

The reported RAM network inhibition of the compound COc1ccc(Nc2nc(N)nc(CN3CCc4ccccc4C3)n2)cc1 was 4.84

The reported RAM network inhibition of the compound COc1ccccc1N1C(=O)N(C(C)=O)C2C1Nc1ccccc1N2C (stereo not drawn) was 4.65

The reported RAM network inhibition of the compound CS(=O)(=O)N(Cc1ccc(C(=O)NCc2ccco2)cc1)c1ccccc1 was 4.76

The reported RAM network inhibition of the compound Cc1ccnc(N2C(=O)c3ccccc3C2Nc2cccc(C)c2C)c1 (stereo not drawn) was 6.56

The reported RAM network inhibition of the compound O=C1C(Cl)=C(Nc2ccccc2O)C(=O)N1c1ccccc1 was 5.61

The reported RAM network inhibition of the compound COc1ccc(C2C(C(=O)NC(C)C)c3ccccc3C(=O)N2C)cc1OC (stereo not drawn) was 5.34

The reported RAM network inhibition of the compound CCSc1nc2c(c(=O)n1-c1ccc(F)cc1)SCC2 was -0.35

The reported RAM network inhibition of the compound CCC(=O)c1ccc(N2CCN(C(=O)COc3ccc(F)cc3)CC2)c(F)c1 was 5.92

The reported RAM network inhibition of the compound CSC1=NCCN1C(=O)c1cccs1 was 1.55

---

# method: SK-BR-3 cell growth inhibitors, pilot screen, 24 h, human (AID 572);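 further: compound exposure lasted between 18 and 24 h rather than exactly 24 h; 100% = carrier-treated control wells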
# reported conditions: SK-BR-3 viability, CellTiter-Glo luminescence, at 10 µM, hits give low values
measured endpoint: viability (%)
State the answer as a number, implicitly in %.

Please review the entries below; each comes with its answer.
COc1ccccc1-n1c(SCC(N)=O)nnc1-c1ccccc1 : 126
O=C1CCCC2=C1C(c1ccc(Br)cc1)c1c([nH]c(=S)[nH]c1=O)N2 (stereo not drawn) : 84
CCOC(=O)c1[nH]c2ccccc2c1NC(=O)CCN1CCN(C(=O)OCC)CC1 : 110
CN(Cc1ccccc1)c1nc2c(c(=O)[nH]c(=O)n2C)n1Cc1ccccc1Cl : 114
COc1ccccc1N1C(=O)c2ccccc2NC1c1ccncc1 (stereo not drawn) : 104

The reported viability of the molecule O=C(CCN1C(=O)COc2ccccc21)NCCN1CCN(c2cccc(Cl)c2)CC1 was 94.5

The reported viability of the molecule CCOC(=O)C1CCN(C(=O)C2CCN(S(=O)(=O)c3cc(Cl)ccc3Cl)CC2)CC1 was 92

The reported viability of the molecule CCn1nnc(NC(=O)c2cc3ccccc3o2)n1 was 103

The reported viability of the molecule C=CS(=O)(=O)c1ccc(Oc2ccc(S(=O)(=O)C=C)cc2)cc1 was 243

The reported viability of the molecule O=C(CCCn1ncn2c(cc3occc32)c1=O)N1CCc2ccccc2C1 was 126

The reported viability of the molecule O=C(CNC1CCCCCC1)Nc1ccc(S(=O)(=O)NC2CC2)cc1 was 100

The reported viability of the molecule S=C(N=Nc1ccccc1)NNc1ccccc1 was 118

The reported viability of the molecule Cc1ccc2[nH]c3c(c2c1)CCc1cn[nH]c1-3 was 132

The reported viability of the molecule O=C(COc1cccc(Oc2ccccc2)c1)Nc1ncccn1 was 99.5

The reported viability of the molecule CCOC(=O)N1CCN(C(=O)c2cccn3c(=O)c4sccc4nc23)CC1 was 89.5

The reported viability of the molecule COc1ccc(-n2c(SCc3ccc(C#N)cc3)nnc2-c2ccccn2)cc1 was 82.5

The reported viability of the molecule Nc1nc(-n2cnnc2)nn1-c1ccccc1 was 92

The reported viability of the molecule Cn1c(=O)c2c(ncn2CC(=O)OCC(=O)NC2CCCc3ccccc32)n(C)c1=O (stereo not drawn) was 98

The reported viability of the molecule COC(=O)Nc1ccc(NC(C)=O)cc1 was 96

The reported viability of the molecule Nc1cc(CN2C(=O)c3ccccc3C2=O)cc(Cl)c1O was 102

The reported viability of the molecule COc1ccc(NC(=O)C(C)NS(=O)(=O)c2ccccc2)cc1Cl (stereo not drawn) was 92

The reported viability of the molecule COC(=O)c1ccc(C2NC(C(=O)O)CS2)cc1 (stereo not drawn) was 132

The reported viability of the molecule NC(Cc1ccc(Oc2ccc(O)cc2)cc1)C(=O)O (stereo not drawn) was 92.5
